Experiment: Oral bioavailability in mouse
Type: ADME, organism-based
Conditions: in vivo
value-type: bioavailability (%)
Answer format: numeric, % implied, no suffix.

Inquiry: Quick one: bioavailability for `CC1(C)[C@H](Nc2c(C(N)=O)cnn3cc(-c4ccccc4)cc23)CC[C@]1(C)N` ?
Reply text: 67

----------
Target: UniProt O75116
Sequence (O75116 whole entry): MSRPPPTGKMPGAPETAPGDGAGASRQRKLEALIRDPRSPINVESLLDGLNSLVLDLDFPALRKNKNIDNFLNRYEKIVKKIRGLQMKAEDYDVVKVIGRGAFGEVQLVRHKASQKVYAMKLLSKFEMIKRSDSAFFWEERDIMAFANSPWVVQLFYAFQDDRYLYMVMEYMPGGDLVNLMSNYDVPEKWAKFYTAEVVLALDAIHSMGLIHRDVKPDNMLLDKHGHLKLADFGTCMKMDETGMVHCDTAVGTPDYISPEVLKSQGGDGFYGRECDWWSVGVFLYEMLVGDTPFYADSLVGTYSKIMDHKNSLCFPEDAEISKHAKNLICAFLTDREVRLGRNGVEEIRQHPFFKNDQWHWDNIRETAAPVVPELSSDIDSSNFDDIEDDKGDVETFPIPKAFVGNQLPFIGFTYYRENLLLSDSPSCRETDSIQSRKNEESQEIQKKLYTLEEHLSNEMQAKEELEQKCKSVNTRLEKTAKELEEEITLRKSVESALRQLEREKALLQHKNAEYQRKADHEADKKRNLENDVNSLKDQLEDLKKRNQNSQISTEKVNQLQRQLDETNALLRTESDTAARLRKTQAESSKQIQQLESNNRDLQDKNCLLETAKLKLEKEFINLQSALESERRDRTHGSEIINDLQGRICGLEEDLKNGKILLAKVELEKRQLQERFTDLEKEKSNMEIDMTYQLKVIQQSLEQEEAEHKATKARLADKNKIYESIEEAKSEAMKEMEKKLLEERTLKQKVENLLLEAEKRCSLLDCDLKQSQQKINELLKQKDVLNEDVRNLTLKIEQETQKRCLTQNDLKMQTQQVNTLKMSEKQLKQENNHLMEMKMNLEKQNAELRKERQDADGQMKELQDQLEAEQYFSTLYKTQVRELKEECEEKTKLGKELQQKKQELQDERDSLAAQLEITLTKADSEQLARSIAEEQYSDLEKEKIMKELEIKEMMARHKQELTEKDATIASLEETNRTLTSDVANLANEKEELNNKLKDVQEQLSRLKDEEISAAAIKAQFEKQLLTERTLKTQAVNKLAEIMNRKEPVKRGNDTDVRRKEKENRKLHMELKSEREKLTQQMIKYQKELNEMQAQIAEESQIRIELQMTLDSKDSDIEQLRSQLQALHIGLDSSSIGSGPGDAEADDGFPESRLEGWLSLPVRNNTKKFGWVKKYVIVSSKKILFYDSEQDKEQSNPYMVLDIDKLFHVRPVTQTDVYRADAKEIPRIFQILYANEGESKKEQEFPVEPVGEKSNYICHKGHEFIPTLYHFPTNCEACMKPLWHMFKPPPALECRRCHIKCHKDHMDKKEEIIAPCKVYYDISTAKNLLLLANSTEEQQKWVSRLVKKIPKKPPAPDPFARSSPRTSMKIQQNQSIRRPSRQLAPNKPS
value-type: IC50 (µM)
Answer format: numeric, µM implied, no suffix.

Inquiry: Quick one: IC50 for `COc1ccc(-c2cc3c(N[C@@H]4CC[C@](C)(N)C4(C)C)c(C(N)=O)cnn3c2)cn1` ?
Reply text: 0.043

----------
Assay: Half life in Sprague-Dawley rat at 2 mg/kg, iv
Format: ADME, organism-based
Settings: in vivo
value-type: half-life (h)
Answer format: numeric, h implied, no suffix.

Inquiry: Quick one: half-life for `COc1ccc(-c2cc3c(N[C@@H]4CC[C@](C)(N)C4(C)C)c(C(N)=O)cnn3c2)cn1` ?
Reply text: 9.8
